Each recorded value in this set is attributed to ChEMBL document CHEMBL1146339.

- protocol.details: Antioxidant activity in BALB/c mouse BM cells assessed as inhibition of ROS production
- Format: functional
- study.conditions: Bone marrow cell
Values of IC25 strictly less than 60 µM map to condition met, and values of at least 60 µM map to condition not met.

stdin: Does the reported IC25 of the following molecule sit strictly below 60 µM? `O=C(CCc1ccc(O)cc1)c1c(O)cc(O)cc1O`
stdout: condition not met

stdin: Does the reported IC25 of the following molecule sit strictly below 60 µM? `O=C1C[C@@H](c2ccc(O)cc2)Oc2cc(O)cc(O)c21`
stdout: condition not met

stdin: Does the reported IC25 of the following molecule sit strictly below 60 µM? `O=c1cc(-c2ccccc2)oc2cc(O)c(O)c(O)c12`
stdout: condition met

stdin: Does the reported IC25 of the following molecule sit strictly below 60 µM? `O=c1c(O)c(-c2ccc(O)c(O)c2)oc2cc(O)ccc12`
stdout: condition met

stdin: Does the reported IC25 of the following molecule sit strictly below 60 µM? `COc1ccccc1-c1oc2ccccc2c(=O)c1O`
stdout: condition met

stdin: Does the reported IC25 of the following molecule sit strictly below 60 µM? `O=c1c(O)c(-c2ccc(O)c(O)c2)oc2ccccc12`
stdout: condition met

stdin: Does the reported IC25 of the following molecule sit strictly below 60 µM? `O=c1c(O)c(-c2ccccc2)oc2cc(O)cc(O)c12`
stdout: condition met

stdin: Does the reported IC25 of the following molecule sit strictly below 60 µM? `COc1c(-c2ccc(O)c(O)c2)oc2cc(O)cc(O)c2c1=O`
stdout: condition met

stdin: Does the reported IC25 of the following molecule sit strictly below 60 µM? `O=c1cc(-c2ccccc2)oc2cc(O)cc(O)c12`
stdout: condition not met

stdin: Does the reported IC25 of the following molecule sit strictly below 60 µM? `O=c1cc(-c2ccc(O)c(O)c2)oc2cc(O)cc(O)c12`
stdout: condition met

---

- protocol.details: Antioxidant activity in BALB/c mouse BM cells assessed as inhibition of ROS production
- Format: functional
- study.conditions: Bone marrow cell
assay.readout: IC25 (µM)
Only the number, expressed in µM, is required.

{"compound": "COc1cc(O)c2c(=O)cc(-c3ccccc3)oc2c1 [TECHTOCHRYSIN]", "assay.readout": "IC25", "units.text": "µM", "meas.value": 160}
{"compound": "COc1cc([C@@H]2Oc3cc([C@@H]4Oc5cc(O)cc(O)c5C(=O)[C@H]4O)ccc3O[C@H]2CO)ccc1O", "assay.readout": "IC25", "units.text": "µM", "meas.value": 140}
{"compound": "Oc1ccc(/C=C/c2cc(O)cc(O)c2)cc1 [RESVERATROL]", "assay.readout": "IC25", "units.text": "µM", "meas.value": 70}

stdin: What IC25 value was documented for this compound, `O=c1cc(-c2cccc(O)c2)oc2c(O)c(O)ccc12` ?
stdout: 0.8

stdin: What IC25 value was documented for this compound, Oc1cc(O)c2c(c1)O[C@H](c1ccc(O)c(O)c1)[C@@H](O)C2 [CIANIDANOL] ?
stdout: 168

stdin: What IC25 value was documented for this compound, O=c1cc(-c2ccc(O)cc2)oc2cc(O)cc(O)c12 [APIGENIN] ?
stdout: 113

stdin: What IC25 value was documented for this compound, C[C@@H]1O[C@@H](O[C@H]2[C@H](Oc3cc(O)c4c(=O)cc(-c5ccc(O)cc5)oc4c3)O[C@H](CO)[C@@H](O)[C@@H]2O)[C@H](O)[C@H](O)[C@H]1O [RHOIFOLIN] ?
stdout: 201

stdin: What IC25 value was documented for this compound, `COc1c(-c2ccccc2)oc2cc(O)ccc2c1=O` ?
stdout: 1050

stdin: What IC25 value was documented for this compound, COc1ccc(-c2coc3cc(O)cc(O)c3c2=O)cc1 [BIOCHANIN] ?
stdout: 33
